Assay: Stability in ultraculture medium after 24 hrs by HPLC-MS
Format: physicochemical
Settings: read-out: Stability

| Structure smiles | Unit abbreviation | remaining at 24 h |
| --- | --- | --- |
| C[C@@H](Cl)[C@@H]1CN(C(=O)c2cc3cc(OCCN(C)C)ccc3[nH]2)c2cc(O[C@@H]3O[C@H](CO)[C@H](O)[C@H](O)[C@H]3O)c3ccccc3c21 | % | 27 |

###

Test system: A549
Experiment: Cytotoxicity against human A549 cells after 24 hrs by HTCFA
Assay type: functional, cell-based
Conditions: A549, 24 h
pIC50: −log10 of the molar value.
Parameter: pIC50

| Structure smiles | Observed result |
| --- | --- |
| C[C@@H](Cl)[C@@H]1CN(C(=O)c2cc3cc(OCCN(C)C)ccc3[nH]2)c2cc(O[C@@H]3O[C@H](CO)[C@H](O)[C@H](O)[C@H]3O)c3ccccc3c21 | 5.44 |
| C[C@@H](Cl)[C@@H]1CN(C(=O)c2cc3cc(OCCN(C)C)ccc3[nH]2)c2cc(O)c3ccccc3c21 | 9.12 |
| C[C@H]1[C@@H]2CN(C(=O)c3cc4cc(OCCN(C)C)ccc4[nH]3)C3=CC(=O)c4ccccc4[C@@]312 | 9.12 |

###

Test system: A549
Assay: Cytotoxicity against human A549 cells after 24 hrs in presence of cleaving enzyme by HTCFA
Type: functional, cell-based
Details: A549, 24 h

| Structure smiles | Unit abbreviation | IC50 |
| --- | --- | --- |
| C[C@@H](Cl)[C@@H]1CN(C(=O)c2cc3cc(OCCN(C)C)ccc3[nH]2)c2cc(O[C@@H]3O[C@H](CO)[C@H](O)[C@H](O)[C@H]3O)c3ccccc3c21 | nM | 0.8 |
